Each entry below carries its recorded IC50.
Test system: NO production in LPS-activated RAW 264.7 cells
Experiment: Inhibition of NO production in LPS-activated RAW 264.7 cells (Griess reaction)
Assay type: cell-based
Details: Mus musculus, RAW264.7, 24 h, read-out: IC50 (NO inhibitory activity)

Give IC50 for COc1cc(/C=C/C=O)cc(OC)c1O[C@@H]1O[C@H](CO)[C@@H](O)[C@H](O)[C@H]1O [Compound 29, sinapaldehyde glucoside]
> 200 µM

Next up:
# return recorded IC50 for input COc1cc(/C=C/CO)cc(OC)c1O[C@@H]1O[C@H](CO)[C@@H](O)[C@H](O)[C@H]1O
> 200 µM
